molecular target: ATP-dependent translocase ABCB1 (Homo sapiens, UniProt P08183); assay: Inhibition of ABCB1 in human A2780 ADR cells assessed as increase in calcein-AM fluorescence intensity using calcein-AM as tracer preincubated for 30 mins followed by calcein-AM addition and measured within 30 mins at 30s intervals by fluorescence based analysis; type: cell-based
Sequence (P08183 whole entry): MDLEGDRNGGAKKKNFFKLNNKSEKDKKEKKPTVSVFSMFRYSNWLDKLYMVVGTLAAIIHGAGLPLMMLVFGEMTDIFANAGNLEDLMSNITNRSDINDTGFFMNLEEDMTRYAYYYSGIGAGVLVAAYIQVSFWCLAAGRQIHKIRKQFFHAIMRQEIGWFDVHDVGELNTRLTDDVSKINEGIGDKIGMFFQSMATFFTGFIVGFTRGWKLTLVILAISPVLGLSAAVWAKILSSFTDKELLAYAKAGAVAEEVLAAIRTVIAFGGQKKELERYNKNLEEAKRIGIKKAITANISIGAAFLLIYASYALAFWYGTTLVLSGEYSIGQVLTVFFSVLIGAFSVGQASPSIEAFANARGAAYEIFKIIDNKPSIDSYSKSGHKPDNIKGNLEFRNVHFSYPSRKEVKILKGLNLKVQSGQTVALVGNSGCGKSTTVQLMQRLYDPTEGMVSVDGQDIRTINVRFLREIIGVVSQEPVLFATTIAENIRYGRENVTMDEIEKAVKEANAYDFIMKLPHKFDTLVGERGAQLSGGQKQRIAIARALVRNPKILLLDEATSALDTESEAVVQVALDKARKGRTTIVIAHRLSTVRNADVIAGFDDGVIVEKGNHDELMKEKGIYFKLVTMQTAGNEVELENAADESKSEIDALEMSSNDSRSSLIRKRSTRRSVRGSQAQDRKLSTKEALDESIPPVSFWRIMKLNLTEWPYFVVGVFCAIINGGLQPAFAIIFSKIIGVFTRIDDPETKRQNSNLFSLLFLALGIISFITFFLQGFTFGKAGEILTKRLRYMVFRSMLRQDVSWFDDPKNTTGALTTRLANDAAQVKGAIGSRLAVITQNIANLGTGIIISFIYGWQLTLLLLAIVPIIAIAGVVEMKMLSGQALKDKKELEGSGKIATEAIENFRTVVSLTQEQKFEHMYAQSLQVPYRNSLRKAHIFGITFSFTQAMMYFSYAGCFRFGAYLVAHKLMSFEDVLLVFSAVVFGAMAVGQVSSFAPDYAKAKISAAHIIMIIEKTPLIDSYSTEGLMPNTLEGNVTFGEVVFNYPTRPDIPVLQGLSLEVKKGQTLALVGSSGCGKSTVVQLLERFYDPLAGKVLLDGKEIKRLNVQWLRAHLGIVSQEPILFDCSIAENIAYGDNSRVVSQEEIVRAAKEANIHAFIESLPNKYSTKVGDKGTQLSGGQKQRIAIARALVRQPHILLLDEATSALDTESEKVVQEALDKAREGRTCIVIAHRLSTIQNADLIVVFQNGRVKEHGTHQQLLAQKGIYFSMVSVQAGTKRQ
recorded.endpoint: IC50 (µM)

# compound.string, IC50 [µM]
data = [
    ("COc1cccc(NC(=O)c2nn(CC(=O)Nc3ccccc3OC)c3ccccc23)c1", 1.56),
]

A: COc1cccc(NC(=O)Cn2nc(C(=O)Nc3cccc(OC)c3)c3ccccc32)c1
B: O=C(Cn1nc(C(=O)Nc2ccccn2)c2ccccc21)Nc1cc(Cl)ccc1Cl
C: O=C(Cn1nc(C(=O)Nc2cccnc2)c2ccccc21)Nc1ccc(Cl)cc1
# desc sort on IC50 across 3 molecules Your reply should list the labels following the order given in the request. C, A, B
